Values compiled from paper PMC9866191.

Measured inhibition at 10 µM, listed per entry.
# System: IGROV1
# run.description: NCI-60 one-dose screen
# Type: cell-based
# assay.setup: Homo sapiens, IGROV-1; IGROV1, Ovarian Cancer panel; single dose 10^−5 M; read-out: Growth inhibition %
Form entry: value (%) — number only.

Consider the reported inhibition at 10 µM for these molecules:
In [3]: df
Out[3]:
                         given_smiles        quantity_name  recorded_measurement
0  COc1cccc(CNc2c3ccccc3nc3ccccc23)c1  inhibition at 10 µM                  71.7
1   Fc1ccc(CNc2c3ccccc3nc3ccccc23)cc1  inhibition at 10 µM                  78.1

Exercise: Requested read-out: inhibition at 10 µM. Entry: Clc1ccccc1CNc1c2ccccc2nc2ccccc12
Solution: 82.2

###

# System: CCD-966SK
# run.description: MTT cell proliferation assay, CCD-966SK
# assay.setup: CCD966SK skin fibroblast; 10 µM; 72 h MTT
Entry flag: satisfied if % Inhibition at 10 µM reaches 40%; not satisfied if it does not.

Use the examples below as a reference point.
>>> df
                                   compound  discrete_label
0  COc1ccc(CNc2c3ccccc3nc3ccccc23)c(OC)c1 [Compound 17, Acridin-9-yl-(2,4-dimethoxybenzyl)-amine]   not satisfied
1  COc1ccc2nc3ccccc3c(NCc3ccccc3)c2c1 [Compound 25, Benzyl-(2-methoxyacridin-9-yl)-amine]       satisfied
2  Cc1ccccc1CNc1c2ccccc2nc2ccccc12 [Compound 2, Acridin-9-yl-(2-methylbenzyl)-amine]       satisfied
3  N.N.[Cl][Pt][Cl] [cisplatin, reference compound]   not satisfied
4  COc1ccc(CNc2c3ccccc3nc3ccccc23)cc1 [Compound 7, Acridin-9-yl-(4-methoxybenzyl)-amine]   not satisfied

Exercise: Could you tell me if the measured % Inhibition at 10 µM of COc1ccc(CNc2c3ccccc3nc3ccccc23)cc1F [Compound 19] reaches 40% or more?
Solution: satisfied

Exercise: Could you tell me if the measured % Inhibition at 10 µM of COc1ccc(CNc2c3ccccc3nc3ccc(OC)cc23)cc1 [Compound 27] reaches 40% or more?
Solution: not satisfied

Exercise: Could you tell me if the measured % Inhibition at 10 µM of COc1ccc2nc3ccccc3c(NCc3ccc(C)cc3)c2c1 [Compound 26] reaches 40% or more?
Solution: satisfied

###

# Test system: CCRF-CEM
# run.description: NCI-60 one-dose screen
# Assay type: cell-based
# assay.setup: Homo sapiens, Leukemia panel, single dose 10^−5 M, read-out: Growth inhibition %
quantity.name: inhibition at 10 µM (%)
Form entry: value (%) — number only.

Consider the reported inhibition at 10 µM for these molecules:
>>> print(df.to_string())
                            given_smiles  recorded_measurement
0     Clc1cccc(CNc2c3ccccc3nc3ccccc23)c1                  81.9
1      Cc1ccc2nc3ccccc3c(NCc3ccccc3)c2c1                  65.1
2    COc1ccc(CNc2c3ccccc3nc3ccccc23)cc1F                  70.4
3      Fc1cccc(CNc2c3ccccc3nc3ccccc23)c1                  53.7
4       COc1ccccc1CNc1c2ccccc2nc2ccccc12                  62.5
5        c1coc(CNc2c3ccccc3nc3ccccc23)c1                  42.9
6  Cc1ccc2nc3ccccc3c(NCc3ccc(Cl)cc3)c2c1                  81.8
7     COc1cccc(CNc2c3ccccc3nc3ccccc23)c1                  69.8

Let us move to another entry and its inhibition at 10 µM.
Exercise: Requested read-out: inhibition at 10 µM. Entry: Fc1ccc(CNc2c3ccccc3nc3ccccc23)cc1F
Solution: 58.5
